target: GABA-A receptor; alpha-2/beta-3/gamma-2 (Homo sapiens, UniProt P18507+P28472+P47869); assay: Inhibition of [3H]Ro-151788 binding to recombinant human gamma-aminobutyric acid A receptor alpha-2-beta-3-gamma-2 subtype expressed in L (tk-) cells
pKi: −log10 of the molar value.
parameter measured: pKi

Worked cases, pKi given:
item smiles	test target	measured
c1ccc(-c2nnc3c4c(c(OCc5nc6ccccc6s5)nn23)C2CCC4CC2)cc1	GABA-A receptor; alpha-2/beta-3/gamma-2 (Homo sapiens, UniProt P18507+P28472+P47869)	< 6.00
c1ccc(-c2nnc3c4c(c(OCc5ccco5)nn23)C2CCC4CC2)cc1	GABA-A receptor; alpha-2/beta-3/gamma-2 (Homo sapiens, UniProt P18507+P28472+P47869)	< 6.30

Exercise: Could you tell me which pKi is on file for FC(F)(F)Oc1ccc(COc2nn3c(-c4ccccc4)nnc3c3c2C2CCC3CC2)cc1 ?
Key: < 6.30

----------
molecular target: GABA-A receptor; alpha-5/beta-3/gamma-2 (Homo sapiens, UniProt P18507+P28472+P31644); experiment: Inhibition of [3H]Ro-151788 binding to recombinant human gamma-aminobutyric-acid A receptor alpha-5-beta-3-gamma-2 subtype expressed in L (tk-) cells
pKi: −log10 of the molar value.
Examples of compounds with documented pKi follow.

Exercise: Could you tell me which pKi is on file for c1ccc(-c2nnc3c4c(c(CNc5ccccn5)nn23)C2CCC4CC2)cc1 ?
Key: < 6.00

Exercise: Could you tell me which pKi is on file for FC(F)(F)Oc1ccc(COc2nn3c(-c4ccccc4)nnc3c3c2C2CCC3CC2)cc1 ?
Key: < 6.30

Exercise: Could you tell me which pKi is on file for Cc1ccc(-c2nc3ccc(C)cn3c2CC(=O)N(C)C)cc1 [ZOLPIDEM] ?
Key: < 5.48

Exercise: Could you tell me which pKi is on file for c1ccc(-c2nnc3c4c(c(OCc5cccs5)nn23)C2CCC4CC2)cc1 ?
Key: < 6.30

Exercise: Could you tell me which pKi is on file for c1ccc(-c2nnc3c4c(c(OCc5ccco5)nn23)C2CCC4CC2)cc1 ?
Key: < 6.30

----------
Target: GABA-A receptor; alpha-5/beta-3/gamma-2 (Homo sapiens, UniProt P18507+P28472+P31644)
Sequence (P18507 whole entry): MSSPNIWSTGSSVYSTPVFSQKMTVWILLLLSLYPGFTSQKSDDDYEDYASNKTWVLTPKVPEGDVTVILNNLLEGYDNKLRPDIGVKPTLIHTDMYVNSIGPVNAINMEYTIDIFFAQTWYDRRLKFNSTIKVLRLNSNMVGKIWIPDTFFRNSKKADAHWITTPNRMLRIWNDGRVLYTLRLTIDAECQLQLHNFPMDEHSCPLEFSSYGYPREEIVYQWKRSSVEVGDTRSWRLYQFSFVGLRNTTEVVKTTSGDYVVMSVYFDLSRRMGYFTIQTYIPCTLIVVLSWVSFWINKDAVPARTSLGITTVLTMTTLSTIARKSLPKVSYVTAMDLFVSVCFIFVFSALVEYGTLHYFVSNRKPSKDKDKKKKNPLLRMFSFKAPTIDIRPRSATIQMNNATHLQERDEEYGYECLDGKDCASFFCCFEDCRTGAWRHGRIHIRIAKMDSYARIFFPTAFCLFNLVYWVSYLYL
Sequence (P28472 whole entry): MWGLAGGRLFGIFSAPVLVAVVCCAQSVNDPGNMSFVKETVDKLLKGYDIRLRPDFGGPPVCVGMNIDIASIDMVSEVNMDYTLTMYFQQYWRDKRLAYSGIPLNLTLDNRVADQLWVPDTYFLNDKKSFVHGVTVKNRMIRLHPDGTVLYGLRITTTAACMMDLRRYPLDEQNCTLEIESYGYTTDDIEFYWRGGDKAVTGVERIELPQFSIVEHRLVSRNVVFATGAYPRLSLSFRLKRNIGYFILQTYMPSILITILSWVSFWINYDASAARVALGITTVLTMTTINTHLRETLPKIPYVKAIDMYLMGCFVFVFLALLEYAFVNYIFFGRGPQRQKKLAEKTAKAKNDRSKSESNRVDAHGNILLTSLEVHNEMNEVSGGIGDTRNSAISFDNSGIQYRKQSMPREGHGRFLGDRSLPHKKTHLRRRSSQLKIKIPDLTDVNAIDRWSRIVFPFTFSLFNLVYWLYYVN
Sequence (P31644 whole entry): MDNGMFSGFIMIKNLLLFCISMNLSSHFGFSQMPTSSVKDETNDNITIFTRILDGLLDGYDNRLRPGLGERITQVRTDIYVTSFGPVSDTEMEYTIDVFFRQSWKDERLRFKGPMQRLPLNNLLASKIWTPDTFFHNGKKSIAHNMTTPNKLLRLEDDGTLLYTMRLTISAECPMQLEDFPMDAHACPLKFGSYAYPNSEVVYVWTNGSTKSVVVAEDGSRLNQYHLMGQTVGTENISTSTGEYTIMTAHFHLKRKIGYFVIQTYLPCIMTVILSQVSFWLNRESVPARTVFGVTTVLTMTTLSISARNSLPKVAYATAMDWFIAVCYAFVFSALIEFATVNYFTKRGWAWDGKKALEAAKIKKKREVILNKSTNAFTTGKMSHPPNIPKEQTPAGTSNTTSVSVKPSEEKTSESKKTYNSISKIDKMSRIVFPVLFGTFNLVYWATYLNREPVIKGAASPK
Assay: Inhibition of [3H]Ro-151788 binding to recombinant human gamma-aminobutyric-acid A receptor alpha-5-beta-3-gamma-2 subtype expressed in L (tk-) cells
Examples of molecules with documented Ki follow.
Express it in nM; write the number only.

item smiles	parameter measured	measured
Cc1ccc(COc2nn3c(-c4ccccc4)nnc3c3c2C2CCC3CC2)nn1	Ki	2.1

Exercise: Could you tell me which Ki is on file for Cc1csc(-c2nnc3c4c(c(OCc5ccccn5)nn23)C2CCC4CC2)n1 ?
Key: 26

Exercise: Could you tell me which Ki is on file for Cn1ncnc1COc1nn2c(-c3ccccc3)nnc2c2c1C1CCC2CC1 ?
Key: 0.39

Exercise: Could you tell me which Ki is on file for Oc1cccnc1COc1nn2c(-c3ccccc3)nnc2c2c1C1CCC2CC1 ?
Key: 34

Exercise: Could you tell me which Ki is on file for O=C(COc1nn2c(-c3ccccc3)nnc2c2c1C1CCC2CC1)N1CCCC1 ?
Key: 9

Exercise: Could you tell me which Ki is on file for c1ccc(Cn2ccnc2COc2nn3c(-c4ccccc4)nnc3c3c2C2CCC3CC2)cc1 ?
Key: 0.21
